# System: RSV A2
# procedure_text: RSV antiviral cytopathic effect (CPE) assay, MTT readout
# Type: cell-based
# assay_setup: human respiratory syncytial virus, HEp-2, 120 h; RSV A2 in HEp2 cells, CPE assay, MTT, approx. 5 days; read-out: Activity Range (RSV A2 antiviral EC50), compounds of Table 2
assay_metric: EC50

// lookup EC50 for CC(C)c1ccc(C23c4ccccc4C(=O)N2CCN3C(=O)c2ccc(F)cc2)cc1 (centres unmarked) [Compound 203]
0.25 to 1 µg/mL

====

As shown below, each of these compounds has a reported EC50 value.
# system: RSV A2 F glycoprotein (membrane-anchored full-length F) in 293 cells (Human respiratory syncytial virus A)
# Construct: A membrane-anchored full-length F was generated essentially according to the method described therein
# Sequence (P03420 26-109): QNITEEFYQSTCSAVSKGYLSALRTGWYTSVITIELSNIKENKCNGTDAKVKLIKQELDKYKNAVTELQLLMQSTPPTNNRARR
# Sequence (P03420 137-574): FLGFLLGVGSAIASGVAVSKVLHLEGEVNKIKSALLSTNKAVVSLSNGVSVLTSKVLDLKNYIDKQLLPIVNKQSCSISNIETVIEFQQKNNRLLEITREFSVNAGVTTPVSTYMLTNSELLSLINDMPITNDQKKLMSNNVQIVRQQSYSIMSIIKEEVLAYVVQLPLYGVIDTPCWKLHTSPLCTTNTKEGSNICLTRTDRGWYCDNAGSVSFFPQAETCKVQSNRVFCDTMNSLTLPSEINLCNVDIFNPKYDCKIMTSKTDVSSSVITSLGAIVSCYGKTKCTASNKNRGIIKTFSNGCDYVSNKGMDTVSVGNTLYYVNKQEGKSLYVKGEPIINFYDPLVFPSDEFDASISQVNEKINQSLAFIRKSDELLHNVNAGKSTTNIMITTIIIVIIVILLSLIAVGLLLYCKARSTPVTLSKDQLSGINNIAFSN
# procedure_text: RSV fusion assay (syncytium formation assay)

Answered cases to consult:
>>> value_measured("COc1ccc(CC(=O)N2CCN3C(=O)c4ccccc4C23c2ccc(C)cc2)cc1 (stereo not shown) [Compound 66]")
"1.82 to 3.64 µM"
>>> value_measured("CCC(=O)N1CCN2C(=O)c3ccccc3C12c1ccc(Cl)cc1 (stereo not shown) [Compound 16]")
"2.2 to 4.4 µM"
>>> value_measured("O=C(c1ccc(F)cc1)N1CCN2C(=O)c3ccccc3C12c1ccc(Cl)cc1 (stereo not shown) [Compound 12]")
"3.69 to 5.53 µM"

Now consider a different compound.
// lookup EC50 for O=C(c1ccc(F)cc1)N1CCN2C(=O)c3ccncc3C12c1ccc(Cl)cc1 (stereo not shown) [Compound 336]
< 1.84 µM
